- Study Target: Protein kinase C (PKC)
- Assay Remarks: Inhibition of Protein kinase C
- Assay type: protein assay
Measured IC50 of individual entries

Smiles Text: Cc1cc(-c2ccccc2)nnc1NCCN1CCOCC1
Bound Type: >
IC50 (µM): 100
//
Smiles Text: Cc1ccc(=N)n(CCCCCCCCCCC(=O)Nc2ccc(-c3ccccc3)nn2)n1
Bound Type: =
IC50 (µM): 31
//
Smiles Text: N=c1ccc(-c2ccccc2)nn1CCCCCCCCCCC(=O)Nc1ccc(-c2ccccc2)nn1
Bound Type: =
IC50 (µM): 3
//
Smiles Text: N=c1cc2c(nn1CCCCCCCCCCC(=O)Nc1ccc(-c3ccccc3)nn1)-c1ccccc1CC2
Bound Type: >
IC50 (µM): 100
